This section presents molecules with their documented MIC values.
- System: Haemophilus influenzae Holt
- ASSAY NOTES: MIC, standard agar-dilution assay, Haemophilus influenzae Holt
- Assay type: cell-based
- CONDITION DETAILS: Haemophilus influenzae
REPORTED PROPERTY: MIC

{"columns": ["MOLECULE", "TESTED SYSTEM", "RESULT"],
 "data": [
  ["CCC1OC(=O)CC(O)C(C)C(OC2OC(C)C(O)C(N(C)C)C2O)C(CC2SCCN2Cc2ccccc2)CC(C)C(=O)C=CC(C)=CC1COC1OC(C)C(O)C(OC)C1OC (centres unmarked)", "Haemophilus influenzae Holt", "16 µg/mL"],
  ["CCC1OC(=O)CC(O)C(C)C(OC2OC(C)C(O)C(N(C)C)C2O)C(CC2OCCO2)CC(C)C(=O)C=CC(C)=CC1COC1OC(C)C(O)C(OC)C1OC (centres unmarked)", "Haemophilus influenzae Holt", "32 µg/mL"],
  ["CCC1OC(=O)CC(O)C(C)C(OC2OC(C)C(OC3CC(C)(O)C(O)C(C)O3)C(N(C)C)C2O)C(CCOC(=O)COc2ccccc2)CC(C)C(=O)C=CC(C)=CC1COC1OC(C)C(O)C(OC)C1OC (centres unmarked)", "Haemophilus influenzae Holt", "> 128 µg/mL"],
  ["CCC1OC(=O)CC(O)C(C)C(OC2OC(C)C(O)C(N(C)C)C2O)C(CCOc2ccc(C=O)cc2)CC(C)C(=O)C=CC(C)=CC1COC1OC(C)C(O)C(OC)C1OC (centres unmarked)", "Haemophilus influenzae Holt", "16 µg/mL"],
  ["CCC1OC(=O)CC(O)C(C)C(OC2OC(C)C(OC3CC(C)(O)C(O)C(C)O3)C(N(C)C)C2O)C(CCOc2ccc(C(=O)c3ccccc3)cc2)CC(C)C(=O)C=CC(C)=CC1COC1OC(C)C(O)C(OC)C1OC (centres unmarked)", "Haemophilus influenzae Holt", "> 128 µg/mL"]
]}
